I'd appreciate it if you could supply inhibition at 10 µM values for the items below.
- test_target: hDGAT1 (Homo sapiens)
- Construct: host or cells: Sf9 insect cells (baculovirus); microsomal preparation
- Sequence (O75907 whole entry): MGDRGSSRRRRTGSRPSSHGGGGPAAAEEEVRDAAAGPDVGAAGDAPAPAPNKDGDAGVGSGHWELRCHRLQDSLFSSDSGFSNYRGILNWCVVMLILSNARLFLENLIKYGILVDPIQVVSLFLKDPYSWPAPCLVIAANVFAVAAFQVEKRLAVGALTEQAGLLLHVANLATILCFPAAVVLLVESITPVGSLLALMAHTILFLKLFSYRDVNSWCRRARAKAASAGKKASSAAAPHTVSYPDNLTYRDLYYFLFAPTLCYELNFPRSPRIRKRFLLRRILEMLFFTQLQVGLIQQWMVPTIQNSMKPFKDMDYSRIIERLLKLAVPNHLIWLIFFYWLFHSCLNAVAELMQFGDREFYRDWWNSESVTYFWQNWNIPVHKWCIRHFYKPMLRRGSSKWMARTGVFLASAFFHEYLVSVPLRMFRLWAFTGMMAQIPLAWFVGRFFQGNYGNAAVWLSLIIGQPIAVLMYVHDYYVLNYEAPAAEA
- procedure_text: In-vitro DGAT1 assay (hDGAT1 microsomes from Sf9 cells, 14C oleoyl CoA, triglyceride formation)
- Type: biochemical
- test_parameters: At 10 μM

input: Reported inhibition at 10 µM, compound COC(=O)[C@H](NC(=NO)c1cc(-c2ccc(Nc3nc4ccc(F)cc4s3)cc2)no1)C(C)C : ____
output: 0 to 50%

input: // next record COC(=O)C(NC(=O)c1cc(-c2ccc(NC(=O)Nc3ccccc3F)cc2)no1)C(C)C (stereo not shown)
output: 50 to 75%

input: // next record COC(=O)[C@H](CC(C)C)NC(=O)c1cc(-c2ccc(Nc3nc4ccc(F)cc4s3)cc2)no1
output: 0 to 50%

input: // next record COc1ccc(NC(=O)Nc2ccc(-c3cc(C(=O)NC(C(=O)O)C(C)C)on3)cc2)cc1 (stereo not shown)
output: 75 to 100%

input: // next record COC(=O)C1(NC(=O)c2cc(-c3ccc(NC(=O)Nc4ccc(F)cc4)cc3)no2)CCCC1
output: 50 to 75%

input: // next record Cc1cc(NC(=O)Nc2ccc(F)cc2)ccc1-c1cc(C(=O)NC(C(=O)O)C(C)C)on1 (stereo not shown)
output: 75 to 100%

input: // next record CC(C)[C@@H](NC(=O)c1cc(-c2ccc(Nc3nc4ccc(F)cc4s3)cc2)no1)C(=O)O
output: 50 to 75%

input: // next record O=C(N[C@H](C(=O)O)c1ccccc1)c1cc(-c2ccc(Nc3nc4ccc(F)cc4s3)cc2)no1
output: 75 to 100%

input: // next record CC(C)[C@H](NC(=O)c1cc(-c2ccc(Nc3nc4ccc(F)cc4s3)cc2)no1)C(=O)O
output: 75 to 100%

input: // next record O=C(O)[C@@H]1CCCN1C(=S)c1cc(-c2cccc(Nc3nc4ccc(F)cc4s3)c2)no1
output: 0 to 50%

input: // next record CC(C)[C@H](NC(=O)c1onc(-c2ccc(NC(=O)Nc3ccccc3)cc2)c1-c1ccccc1)C(=O)O
output: 0 to 50%

input: // next record CC(C)(NC(=O)c1cc(-c2ccc(NC(=O)Nc3ccc(F)cc3)cc2)no1)C(=O)O
output: 50 to 75%

input: // next record COC(=O)C(NC(=O)c1cc(-c2ccc(NC(=O)Nc3ccc(C)cc3)cc2)no1)C(C)C (stereo not shown)
output: 50 to 75%

input: // next record O=C(O)CNC(=S)c1cc(-c2ccc(Nc3nc4ccc(F)cc4s3)cc2)no1
output: 0 to 50%

input: // next record COC(=O)[C@@H](NC(=S)c1cc(-c2ccc(Nc3nc4ccc(F)cc4s3)cc2)no1)C(C)C
output: 0 to 50%

input: // next record COC[C@H](NC(=NO)c1cc(-c2cccc(Nc3nc4ccc(F)cc4s3)c2)no1)C(=O)OC
output: 0 to 50%
